- target.of.assay: PCSK9 (Homo sapiens (Human), UniProt Q8NBP7)
- Sequence (Q8NBP7 153-692): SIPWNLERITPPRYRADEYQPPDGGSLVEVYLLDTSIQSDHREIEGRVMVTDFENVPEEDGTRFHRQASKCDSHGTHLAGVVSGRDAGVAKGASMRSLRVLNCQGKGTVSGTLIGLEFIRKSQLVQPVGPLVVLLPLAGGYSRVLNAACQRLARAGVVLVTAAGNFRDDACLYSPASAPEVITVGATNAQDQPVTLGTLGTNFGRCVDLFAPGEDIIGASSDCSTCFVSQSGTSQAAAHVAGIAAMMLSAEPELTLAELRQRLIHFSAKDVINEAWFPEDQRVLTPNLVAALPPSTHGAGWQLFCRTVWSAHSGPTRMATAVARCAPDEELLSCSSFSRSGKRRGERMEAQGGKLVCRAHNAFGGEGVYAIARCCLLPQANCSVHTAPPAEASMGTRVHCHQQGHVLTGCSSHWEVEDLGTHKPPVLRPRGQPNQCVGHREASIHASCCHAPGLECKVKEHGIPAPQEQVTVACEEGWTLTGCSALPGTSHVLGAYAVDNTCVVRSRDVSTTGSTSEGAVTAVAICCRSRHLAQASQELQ
- assay.method.text: PCSK9 Alexa FRET Standard assay (displacement of AlexaFluor647 tagged cyclic peptide Reagent A)
- Assay type: binding
- protocol.conditions: PCSK9 Alexa FRET Standard assay, 0.5 nM PCSK9, 20 nM AF cyclic peptide Reagent A; read-out: IC50
Starred links: 1 amine or outer side, 2 acyl side, 3 side chain; linkers in the order of their positions; H or OH if unused. Positions of bridges follow the written chain, without caps; N, C: chain ends. Non-standard residues stand in square brackets, D forms with d. Residues, ends and D or L forms follow the SMILES beside them. *: point of attachment. Phe(4-COOH) = N[C@@H](Cc1ccc(C(=O)O)cc1)C(=O)O; Trp(5-F) = N[C@@H](Cc1c[nH]c2ccc(F)cc12)C(=O)O; Trp(6-F) = N[C@@H](Cc1c[nH]c2cc(F)ccc12)C(=O)O; Leu(3R-OH) = CC(C)[C@@H](O)[C@H](N)C(=O)O; Pro(cis-4-F) = O=C(O)[C@@H]1C[C@H](F)CN1; X19 = O=C(CCCCc1ccc(CCCCN[*:1])cc1)[*:2]; mXylylene = c1cc(C[*:1])cc(C[*:2])c1; AEF = NCCOc1ccc(C[C@H](N)C(=O)O)cc1; Suc = O=C(CCC(=O)[*:2])[*:1]; αMeP = C[C@@]1(C(=O)O)CCCN1; Ahx = NCCCCCC(=O)O; X37 = O=C(CC1CC1)*; Mpa = O=C(O)CCS
Measured IC50 values are reported for all entries that follow.
property: IC50

compound	property	reading
CC(C)[C@@H](O)[C@@H]1NC(=O)[C@@H]2CCCN2C(=O)[C@H](Cc2c[nH]c3ccc(F)cc23)NC(=O)[C@H](Cc2c[nH]c3ccc(F)cc23)NC(=O)CNC(=O)[C@H](CCCCN)NC(=O)CCSCc2cccc(c2)CSC[C@@H](C(N)=O)NC(=O)[C@]2(C)CCCN2C(=O)[C@H](Cc2ccc(O)cc2)NC1=O [Compound 049] ([Mpa]KG[Trp(5-F)][Trp(5-F)]P[Leu(3R-OH)]Y[αMeP]C-NH2; linker 1-10 via mXylylene)	IC50	0.1 to 1 µM
C[C@@H]1NC(=O)CCCCc2ccc(cc2)CCCCNC(=O)C[C@@H](C(=O)N[C@@H](Cc2cnc[nH]2)C(=O)N[C@@H](Cc2ccc(O)cc2)C(=O)N2CCC[C@H]2C(N)=O)NC(=O)[C@H](Cc2c[nH]c3ccc(F)cc23)NC(=O)[C@H](Cc2c[nH]c3ccc(F)cc23)NC(=O)CNC1=O [Compound 330] ([X19]AG[Trp(5-F)][Trp(5-F)]DHYP-NH2; lactam N-6)	IC50	1 to 12.1 µM
COc1ccc(C[C@@H]2NC(=O)[C@H](Cc3cnc[nH]3)NC(=O)[C@H](CC(=O)O)NC(=O)[C@H](Cc3c[nH]c4cc(F)ccc34)NC(=O)[C@H](Cc3c[nH]c4ccc(F)cc34)NC(=O)[C@@H](C)NC(=O)CCCCCNC(=O)c3ccc(cc3)C[C@@H](C(N)=O)NC(=O)[C@]3(C)CCCN3C2=O)cc1 [Compound 350] ([Ahx][dA][Trp(5-F)][Trp(6-F)]DHY(Me)[αMeP][Phe(4-COOH)]-NH2; lactam N-9)	IC50	21 to 50 µM
COc1ccc(C[C@@H]2NC(=O)[C@H]([C@@H](C)O)NC(=O)[C@@H]3C[C@H](F)CN3C(=O)[C@H](Cc3c[nH]c4ccc(F)cc34)NC(=O)[C@H](Cc3c[nH]c4ccc(F)cc34)NC(=O)[C@@H](C)NC(=O)[C@H](CCCCN)NC(=O)[C@@H](NC(=O)CC3CC3)CC(=O)NCCOc3ccc(cc3)C[C@@H](C(N)=O)NC(=O)[C@]3(C)CCCN3C2=O)cc1 [Compound 108] (X37-DK[dA][Trp(5-F)][Trp(5-F)][Pro(cis-4-F)]TY(Me)[αMeP][AEF]-NH2; lactam 1-10)	IC50	0.00011 to 0.1 µM
COc1ccc(C[C@@H]2NC(=O)[C@H]([C@@H](C)O)NC(=O)[C@@H]3C[C@H](F)CN3C(=O)[C@H](Cc3c[nH]c4ccc(F)cc34)NC(=O)[C@H](Cc3c[nH]c4ccc(F)cc34)NC(=O)[C@@H](C)NC(=O)[C@H](CCCCN)NC(=O)CCC(=O)NCCOc3ccc(cc3)C[C@@H](C(N)=O)NC(=O)[C@]3(C)CCCN3C2=O)cc1 [Compound 098] (K[dA][Trp(5-F)][Trp(5-F)][Pro(cis-4-F)]TY(Me)[αMeP][AEF]-NH2; linker N-9 via Suc)	IC50	21 to 50 µM

Source of measurements: patent US11530244B2
